target: CD73 activity in MDA-MB-231-GFP cells (Homo sapiens); construct: endogenous in cells; host or cells: MDA-MB-231-GFP cells; test: MDA-MB-231 Cell Based CD73 Activity Assay (DMEM); details: 3000 cells per well, DMEM medium with 10% human plasma, overnight compound treatment, AMP 200 uM
Sequence (P21589 27-549): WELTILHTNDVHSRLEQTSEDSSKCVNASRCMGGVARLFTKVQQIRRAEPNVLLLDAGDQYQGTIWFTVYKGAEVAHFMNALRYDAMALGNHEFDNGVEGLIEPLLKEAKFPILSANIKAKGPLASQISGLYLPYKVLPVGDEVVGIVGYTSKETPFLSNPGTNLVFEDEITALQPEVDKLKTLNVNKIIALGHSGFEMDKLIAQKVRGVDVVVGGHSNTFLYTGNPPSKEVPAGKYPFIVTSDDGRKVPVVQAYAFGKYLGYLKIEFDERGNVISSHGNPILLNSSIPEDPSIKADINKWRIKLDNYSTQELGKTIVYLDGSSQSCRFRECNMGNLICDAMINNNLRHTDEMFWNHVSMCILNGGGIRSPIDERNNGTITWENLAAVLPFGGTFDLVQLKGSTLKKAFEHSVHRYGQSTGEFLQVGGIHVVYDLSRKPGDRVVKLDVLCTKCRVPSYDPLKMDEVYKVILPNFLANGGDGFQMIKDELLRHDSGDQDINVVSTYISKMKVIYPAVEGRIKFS
Criterion: EC50 strictly under 4 nM. Met: rule met. Not met: rule not met.

*Q* Is EC50 of O=C1N(CC(F)(F)F)c2cc([C@H]3C[C@@H]3c3cc(-c4c[nH]c(=O)[nH]c4=O)nn4ccnc34)c(F)cc2C12CC2 (racemic) strictly below 4 nM?
*A* rule met

*Q* Is EC50 of N#Cc1cc([C@H]2C[C@@H]2c2cc(-c3c[nH]c(=O)[nH]c3=O)nn3ccnc23)ccc1OC(F)(F)F (racemic) strictly below 4 nM?
*A* rule not met

*Q* Is EC50 of CNC(=O)c1ccc([C@H]2C[C@@H]2c2cc(-c3c[nH]c(=O)[nH]c3=O)nn3c(F)cnc23)cc1 (racemic) strictly below 4 nM?
*A* rule not met

*Q* Is EC50 of N#Cc1ccc([C@H]2C[C@@H]2c2cc(-c3c[nH]c(=O)[nH]c3=O)nn3ccnc23)c(F)c1 (racemic) strictly below 4 nM?
*A* rule not met

*Q* Is EC50 of O=c1[nH]cc(-c2cc([C@H]3C[C@@H]3c3cc4c(cnn4CC(F)(F)F)cc3F)c3ncc(F)n3n2)c(=O)[nH]1 strictly below 4 nM?
*A* rule met

*Q* Is EC50 of CCOC(=O)c1cn2nc(-c3c[nH]c(=O)[nH]c3=O)cc([C@H]3C[C@@H]3c3ccc(F)cc3)c2n1 (racemic) strictly below 4 nM?
*A* rule not met
